system: UV4 cells; assay: Activation of prodrug by E. coli nitroreductase: IC50 in UV4 cells without and with purified enzyme and NADH; format: cell-based, Chinese hamster; conditions: 18 hours, aerobic, purified E. coli nitroreductase 1 μg/mL and NADH 1 mM during the entire incubation, read-out: IC50 in UV4 cells in the presence of E. coli nitroreductase
Measurement Kind: pIC50
When answering, recall that pIC50 equals minus log10 of the concentration in mol/L, and write that number alone.

stdin: Quote pIC50 reported for COc1cc2cc(C(=O)N3CC(CCl)c4ccc([N+](=O)[O-])cc43)[nH]c2c(OC)c1OC (stereo not shown) please.
stdout: 8.22

----------
system: UV4 cells; experiment: Activation of prodrug by E. coli nitroreductase: IC50 in UV4 cells without and with purified enzyme and NADH; format: cell-based, Chinese hamster; details: Cricetulus griseus, 18 hours, aerobic, purified E. coli nitroreductase 1 μg/mL and NADH 1 mM during the entire incubation, read-out: IC50 in UV4 cells in the presence of E. coli nitroreductase
Measurement Kind: IC50 (nM)
I only need the number, in nM, no unit after it.

stdin: Report the value of IC50 obtained on UV4 cells for COc1cc2cc(C(=O)N3CC(CCl)c4ccc(NC(=O)OCc5ccc([N+](=O)[O-])cc5)cc43)[nH]c2c(OC)c1OC (stereo not shown) .
stdout: 460
